ASSAY_SYSTEM: human SR-BI (Homo sapiens)
Construct: expressed in transfected cells; host or cells: BHK(SR-BI) cells obtained from the NIH, GeneSwitch System (Invitrogen), induced with 10 nM mifepristone
Sequence (Q8WTV0 1-509 isoform Q8WTV0-2): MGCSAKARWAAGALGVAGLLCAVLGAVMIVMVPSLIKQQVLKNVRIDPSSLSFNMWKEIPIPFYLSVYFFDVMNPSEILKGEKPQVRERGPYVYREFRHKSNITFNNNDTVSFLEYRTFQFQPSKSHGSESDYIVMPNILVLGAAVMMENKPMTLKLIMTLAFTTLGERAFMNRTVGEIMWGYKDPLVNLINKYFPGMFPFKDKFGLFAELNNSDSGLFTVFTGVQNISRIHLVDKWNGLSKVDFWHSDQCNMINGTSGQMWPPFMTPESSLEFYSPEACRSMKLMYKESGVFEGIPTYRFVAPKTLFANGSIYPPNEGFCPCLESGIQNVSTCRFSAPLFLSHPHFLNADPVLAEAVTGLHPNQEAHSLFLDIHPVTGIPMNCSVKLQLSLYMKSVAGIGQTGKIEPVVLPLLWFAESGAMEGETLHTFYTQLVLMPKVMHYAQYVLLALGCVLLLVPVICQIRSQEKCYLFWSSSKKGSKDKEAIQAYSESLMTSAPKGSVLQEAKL
METHOD_NOTES: DiI uptake from DiI-labeled PALM by BHK(SR-BI) cells, uninduced or mifepristone-induced (SR-BI selectivity)
Type: cell-based
RUN_CONDITIONS: Increase over basal uptake
Square brackets hold non-standard residues; d marks the D form. Ends that are not written are not given here. Aib = CC(C)(N)C(=O)O
REPORTED_METRIC: SR-BI Dependent Uptake (%)
Respond numerically; units are % and should not be typed.

Bench note, human SR-BI (Homo sapiens): entry DV{Aib}QKLFELFNQLLEKWKQV (DV[Aib]QKLFELFNQLLEKWKQV) [SEQ ID NO: 3, amphiphilic peptide used to form PALM] , its SR-BI Dependent Uptake = 79

Bench note, human SR-BI (Homo sapiens): entry DV{Aib}QKFLELFNQLLEKWKQV (DV[Aib]QKFLELFNQLLEKWKQV) [SEQ ID NO: 4, amphiphilic peptide used to form PALM] , its SR-BI Dependent Uptake = 66

Bench note, human SR-BI (Homo sapiens): entry DVFQKL{Aib}ELFQNL{Aib}EKWKQV (DVFQKL[Aib]ELFQNL[Aib]EKWKQV) [SEQ ID NO: 10, amphiphilic peptide used to form PALM] , its SR-BI Dependent Uptake = 78

Bench note, human SR-BI (Homo sapiens): entry DVFQKL{Aib}ELFNQL{Aib}EKWKQV (DVFQKL[Aib]ELFNQL[Aib]EKWKQV) [SEQ ID NO: 5, amphiphilic peptide used to form PALM] , its SR-BI Dependent Uptake = 104

Bench note, human SR-BI (Homo sapiens): entry DVFQKL{Aib}ELFQQL{Aib}EKWKQV (DVFQKL[Aib]ELFQQL[Aib]EKWKQV) [SEQ ID NO: 9, amphiphilic peptide used to form PALM] , its SR-BI Dependent Uptake = 72

Bench note, human SR-BI (Homo sapiens): entry DVFQKL{Aib}ELFNQL{Aib}EKFKQV (DVFQKL[Aib]ELFNQL[Aib]EKFKQV) [SEQ ID NO: 6, amphiphilic peptide used to form PALM] , its SR-BI Dependent Uptake = 82

Bench note, human SR-BI (Homo sapiens): entry DVFQKL{Aib}ELFKELLEKWKQV (DVFQKL[Aib]ELFKELLEKWKQV) [SEQ ID NO: 8, amphiphilic peptide used to form PALM] , its SR-BI Dependent Uptake = 14

Bench note, human SR-BI (Homo sapiens): entry PVLDLFRELLNELLEALKQKLK [SEQ ID NO: 11, reference compound] , its SR-BI Dependent Uptake = 55
